- Tested on: T. b. rhodesiense STIB 900 strain
- Test: Antitrypanosomal assay in vitro (Alamar Blue)
- Type: cell-based, Trypanosoma brucei rhodesiense
- Stated conditions: Trypanosoma brucei; bloodstream form T. b. rhodesiense STIB 900; 70 h incubation; read-out: IC50 (µM) STIB900
- Description: The drug sensitive strain of P. falciparum (NF54) was obtained from Schipol Airport, The Netherlands. […] L-6 cells were derived from rat skeletal myoblasts. In vitro antitrypanosomal assay was carried out against the bloodstream form of T. b. rhodesiense STIB 900 strain using the Alamar Blue assay. […] Plates were read with a Spectramax Gemini XS (Molecular Devices Cooperation, Sunnyvale, CA, USA) at EX/EM (536/588 nm). […]
# IC50 annotations
Dear colleague, please return just the value in µM, with no unit written.

Previously resolved entries follow.
compound="CCCCCCCCCCC#CCCc1cc(=O)c2ccccc2n1C [Compound 36a]" target_of_assay="T. b. rhodesiense STIB 900 strain" result_number=33.5
compound="CCCCCCCCCCC#CCCc1cc(=O)c2ccccc2n1CC [Compound 36b]" target_of_assay="T. b. rhodesiense STIB 900 strain" result_number=16.6
compound="C=CCn1c(/C=C/CCCCCCCCCCCC)cc(=O)c2ccccc21 [Compound 18e]" target_of_assay="T. b. rhodesiense STIB 900 strain" result_number=8.18
compound="CCCCCCCCC/C=C/c1cc(=O)c2ccccc2n1C [Compound 18a]" target_of_assay="T. b. rhodesiense STIB 900 strain" result_number=52.2
compound="Cn1c(-c2ccc(CCCCCCBr)cc2)cc(=O)c2ccccc21 [Compound 5a]" target_of_assay="T. b. rhodesiense STIB 900 strain" result_number=1.64

Any idea what IC50 was measured for Cn1c(CCCCC=C2CCCCCC2)cc(=O)c2ccccc21 [Compound 31] ?
14.4

Give the measured IC50 of C#CCn1c(/C=C/CCCCCCCCCCCC)cc(=O)c2ccccc21 [Compound 18d] .
24.5

Any idea what IC50 was measured for CCCOc1ccc(/C=C/c2cc(=O)c3ccccc3n2CCBr)cc1 [Compound 10a] ?
1.25

IC50 lookup needed for CCCCCOc1ccc(/C=C/c2cc(=O)c3ccccc3n2CCBr)cc1 [Compound 11] , thanks.
3.82

Every entry's value here was drawn from paper PMC6271202.
